Target: hTAPBPR^KRQ (R105K, K211R, R270Q), luminal domain, C94S (human)
Test: SPR; biotinylated TAPBPR (about 1000 RU) immobilised on a streptavidin chip; peptide-loaded HLA (photolabile peptide, no UV) flowed over at 0-20 µM; 25°C; 150 mM NaCl, 20 mM sodium phosphate pH 7.4, 0.1% Tween 20; 30 µl/min, 60 s injection, 180 s dissociation; kinetic fit or one site-specific binding …
pKd: −log10 of the molar value.
Measurement Name: pKd

[[record]]
substance = "peptide-loaded HLA-A*02:01/hβ2m/KILGFVFJV (from UniProt P61769 21-119) (peptide-MHC)"
tgt = "hTAPBPR^KRQ (R105K, K211R, R270Q), luminal domain, C94S (human)"
measurement_name = "pKd"
result_value = 5.86


---

Target: peptide-deficient (empty) HLA-A*01:01/hβ2m (human)
Recorded kapp of fluorescent peptide binding to HLA-A*01:01 with 5 μM TAPBPR (FP) values for a group of substances are listed next.
Measurement Name: kapp of fluorescent peptide binding to HLA-A*01:01 with 5 μM TAPBPR (FP) (s⁻¹)

[[record]]
substance = "hTAPBPR^RQ (K211R and R270Q), soluble ectodomain (domain or fragment)"
result_value = 0.00014

[[record]]
substance = "hTAPBPR^KRQ (R105K, K211R, and R270Q), soluble ectodomain (domain or fragment)"
result_value = 0.00013

[[record]]
substance = "hTAPBPR^FLQ (S104F, K211L, and R270Q), soluble ectodomain (domain or fragment)"
result_value = "7e-05"

[[record]]
substance = "chicken TAPBPR, luminal domain (domain or fragment)"
result_value = 0.00017


---

Biological target: human TAPBPR (TAP binding protein, related), luminal domain (human)
Test: SPR; biotinylated TAPBPR (about 1000 RU) on a streptavidin chip; peptide-loaded HLA, not UV-irradiated, injected at 0-20 μM; 25°C; 150 mM NaCl, 20 mM sodium phosphate pH 7.4, 0.1% Tween 20
Measurement Name: Kd (µM)

[[record]]
substance = "peptide-loaded HLA-A*24:02/hβ2m (photolabile peptide VYGJVRACL) (from UniProt P61769 21-119) (peptide-MHC)"
unit_of_measurement = "µM"
result_value = 10.9

[[record]]
substance = "peptide-loaded HLA-A*02:01/hβ2m (photolabile peptide KILGFVFJV) (from UniProt P61769 21-119) (peptide-MHC)"
unit_of_measurement = "µM"
result_value = 9.44


---

Target: chicken TAPBPR, luminal domain (chicken (G. gallus))
Test: ITC; 150 μM pHLA-B*08:01 in the syringe titrated into 5 μM chTAPBPR in the cell, both with 0.45 mM FLRGRAJGL; 150 mM NaCl, 20 mM sodium phosphate pH 7.2; one-site model; apparent KD
Measurement Name: Kd

[[record]]
substance = "peptide-loaded HLA-B*08:01/hβ2m (photolabile peptide FLRGRAJGL) (from UniProt P61769 21-119) (peptide-MHC)"
measurement_name = "Kd"
result_value = "4.6 µM"


---

Target: hTAPBPR^RQ (K211R, R270Q), luminal domain, C94S (human)
Assay: SPR; biotinylated TAPBPR (about 1000 RU) immobilised on a streptavidin chip; peptide-loaded HLA (photolabile peptide, no UV) flowed over at 0-20 µM; 25°C; 150 mM NaCl, 20 mM sodium phosphate pH 7.4, 0.1% Tween 20; 30 µl/min, 60 s injection, 180 s dissociation; kinetic fit or one site-specific binding …
pKd: −log10 of the molar value.
Measurement Name: pKd

[[record]]
substance = "peptide-loaded HLA-A*02:01/hβ2m/KILGFVFJV (from UniProt P61769 21-119) (peptide-MHC)"
measurement_name = "pKd"
result_value = 5.88

